- TARGET OR SYSTEM: CynT2 (Escherichia coli, UniProt P61517)
- Construct: gene can; oligomer not determined (dimer or tetramer stated for bacterial beta-CAs in general)
- Sequence (P61517 whole entry): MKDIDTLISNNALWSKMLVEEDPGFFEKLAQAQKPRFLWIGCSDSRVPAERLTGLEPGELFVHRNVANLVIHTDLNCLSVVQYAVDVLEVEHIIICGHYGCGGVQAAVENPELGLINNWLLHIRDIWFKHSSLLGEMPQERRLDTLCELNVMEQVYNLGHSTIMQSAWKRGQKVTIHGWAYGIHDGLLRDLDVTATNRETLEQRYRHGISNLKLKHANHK
- MEASUREMENT DESCRIPTION: stopped-flow CO2 hydrase assay, phenol red
- Type: biochemical
- EXPERIMENTAL CONDITIONS: read-out: KI *(nM) / CynT2
MEASUREMENT KIND: Ki (nM)
Give a bare numeral; the unit nM is implied.

See these solved cases before continuing.
INSERT INTO measurements (compound, measurement_kind, numeric_readout) VALUES
  ('Nc1ccc(S(N)(=O)=O)cc1', 'Ki', 790),
  ('NS(=O)(=O)c1ccc(CCO)cc1', 'Ki', 502),
  ('Nc1cc(Cl)c(S(N)(=O)=O)cc1S(N)(=O)=O', 'Ki', 4390),
  ('NS(=O)(=O)c1cc(Cl)cc(Cl)c1O', 'Ki', 8560),
  ('NS(=O)(=O)c1ccc(N2CCCCS2(=O)=O)cc1', 'Ki', 285);

What does the data say about its Ki? Entry: NS(=O)(=O)Cc1noc2ccccc12 [ZNS, Zonisamide] 3190

Please answer likewise for `NCc1ccc(S(N)(=O)=O)cc1` 2840

Proceed to `Cc1ccc(S(N)(=O)=O)cc1` 3010

Note, next up: `Nc1ccc(S(N)(=O)=O)cc1Br` 2710

Input `NS(=O)(=O)c1cccc(S(N)(=O)=O)c1` 457

====

- TARGET OR SYSTEM: CynT2 (Escherichia coli, UniProt P61517)
- Construct: gene can; oligomer not determined (dimer or tetramer stated for bacterial beta-CAs in general)
- MEASUREMENT DESCRIPTION: stopped-flow CO2 hydrase assay, phenol red
- Assay type: biochemical
- EXPERIMENTAL CONDITIONS: read-out: KI *(nM) / CynT2
Examples of compounds with documented Ki follow.
Could you give me the number in nM? Just the number is fine.

Query: Ki; subject: `Nc1nnc(S(N)(=O)=O)s1` 4120

# iterate: NS(=O)(=O)c1cc2c(cc1Cl)NCNS2(=O)=O [HCT, Hydrochlorothiazide] 5010

Consider next the compound `NC(N)=Nc1nc(CSCCC(N)=NS(N)(=O)=O)cs1` in the same way. 2770

Entry to check: `Cc1onc(-c2ccccc2)c1-c1ccc(S(N)(=O)=O)cc1` 2750

Next: `NS(=O)(=O)c1ccc(S(=O)(=O)Nc2cccc3c(Cl)c[nH]c23)cc1` 2390

# repeat for `NS(=O)(=O)NCCNc1nonc1C(=NO)Nc1ccc(F)c(Br)c1` 2560

====

- TARGET OR SYSTEM: CynT2 (Escherichia coli)
- Construct: gene can; oligomer not determined (dimer or tetramer stated for bacterial beta-CAs in general)
- MEASUREMENT DESCRIPTION: stopped-flow CO2 hydrase assay, phenol red
- Assay type: biochemical
- EXPERIMENTAL CONDITIONS: read-out: KI *(nM) / CynT2
log10 Ki values for the compounds below.
Use the decimal logarithm of Ki (nM).

The following compounds have reported results that may help.
INSERT INTO assay_data (compound, measurement_kind, numeric_readout) VALUES
  ('Cn1nc(S(N)(=O)=O)sc1=N [compound 14, 14]', 'log10 Ki', 2.64),
  ('Nc1ccc(S(=O)(=O)NCCc2ccc(S(N)(=O)=O)cc2)cc1 [compound 24, 24]', 'log10 Ki', 1.91),
  ('NS(=O)(=O)c1ccc(C(=O)O)cc1 [compound 18, 18]', 'log10 Ki', 2.31),
  ('NS(=O)(=O)c1nnc(NS(=O)(=O)c2ccccc2)s1 [BZA, Benzolamide]', 'log10 Ki', 2.44),
  ('CCN1CCCC1CNC(=O)c1cc(S(N)(=O)=O)ccc1OC (centres unmarked) [SLP, Sulpiride]', 'log10 Ki', 1.99);

Could you now look at the following compound, please?
Requested read-out: log10 Ki. Entry: CC1(C)O[C@@H]2[C@@H](CO[C@@]3(COS(N)(=O)=O)OC(C)(C)O[C@@H]23)O1 [TPM, Topiramate] 3.53
